Reported pEC50 is given for each of the following binders.
Molecular target: T1, cynoGITR on 293F‐cynoGITR cells (Macaca fascicularis)
T1 construct: also called 293F‐cGITR
T1 chain: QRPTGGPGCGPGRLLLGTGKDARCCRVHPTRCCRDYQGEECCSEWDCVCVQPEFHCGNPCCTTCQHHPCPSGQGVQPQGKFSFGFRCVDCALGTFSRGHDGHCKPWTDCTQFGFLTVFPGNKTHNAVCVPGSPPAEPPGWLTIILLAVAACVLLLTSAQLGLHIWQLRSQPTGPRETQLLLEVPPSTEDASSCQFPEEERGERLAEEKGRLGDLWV
Assay: flow cytometry on cells; 293F‐hGITR or 293F‐cynoGITR cells incubated with antibodies at 4 °C for 1 h, fluorescent anti-rat/human secondary antibody; EC50 of MFI curve
Details: one partner purified
pEC50: −log10 of the molar value.

BINDER: hab064 (antibody, V domains shown, 3503‐hab064‐VH; 3503‐hab064‐Vk; Whole antibody, human IgG1 heavy chain constant region, human kappa light chain constant region; source: FreeStyle 293F, transiently co-transfected, purified from culture supernatant) VH: QVQLVESGGGVVQPGRSLRLSCAASGFTFSSYGMHWVRQAPGKGLEWVAVIWYETSNKYYADSVKGRFTISRDNSKNTLYLQMNNLRAEDTAVYYCARYGGNSGWYWYFDLWGRGTLVTVSS VL: DIQLTQSPSFLSASVGDRVTITCRASQGISSFLAWYQQKPGTAPKLLIYAASTLQSGVPSRFSGSGSGTEFTLTISSLQPEDFATYCCQQLNSYPFTFGQGTKLEIK
pEC50: 9.66
//
BINDER: hab070 (antibody, V domains shown, 3503‐hab070‐VH; 3503‐hab070‐Vk; Whole antibody, human IgG1 heavy chain constant region, human kappa light chain constant region; source: FreeStyle 293F, transiently co-transfected, purified from culture supernatant) VH: QVQLVESGGGVVQPGRSLRLSCAASGFTFSSYGMHWVRQAPGKGLEWVAVIWYETSNKFYVDSVKGRFTISRDNSKNTLYLQMNSLRAEDTAVYYCARYGASSGWYWYFDLWGRGTLVTVSS VL: DIQLTQSPSFLSASVGDRVTITCRASQGISSFLAWYQQKPGKAPKLLIYAASTLQSGVPSRFSGSGSGTEFTLTISSLQPEDFATYCCQQLNSYPFTFGQGTKLEIK
pEC50: 9.72

Cited source for all entries: paper PMC9340783
